# System: MS2 coat protein
# METHOD: apparent KD of MS2 coat protein; designed switch direction (-1 OFF switch, 1 ON switch): -1; higher = weaker reporter binding
# EXPERIMENTAL SETUP: input ligand: none
MEASUREMENT LABEL: apparent KD of MS2 coat protein

• GCCGGAUAAGUGAGGAUAUACCUAUGGAUACAUAGGUAGAAGGCACAUGAGGAUCACCCAUGUUCCUCUCCGGC [JL-BMX4-4.17 Eli mod] (Eterna round: R97, puzzle: Brourd's mod of Exclusion 4) = 0.0303 µM
• GGGCCCGGUGUGAGGAUAUUUCGAGUGAAAGCUUGAGAGAAGGCACAUGAGGAUCACCCAUGUAAGCCGGGCCC [-36.4, -34.3 kcal, A 26%, 1bis-0] (Eterna round: R97, puzzle: Brourd's mod of Exclusion 4) = 0.0178 µM
